tested on: HIV-1 NL4-3, RT L74V; type: cell-based
result.type: EC50 (nM)

structure_smiles=COC(=O)CCCC=C(c1cc(Cl)c(OC)c(C(=O)OC)c1)c1cc(Cl)c(OC)c(C(=O)OC)c1 obs_value=2230

* * *

tested on: HIV-1 NL4-3 Wildtype; assay: microbe, parasite or virus in culture; type: cell-based; details: Human immunodeficiency virus 1, NL43, CEM-SS
pEC50: −log10 of the molar value.
result.type: pEC50

structure_smiles=COC(=O)CCCC=C(c1cc(Cl)c(OC)c(C(=O)OC)c1)c1cc(Cl)c(OC)c(C(=O)OC)c1 obs_value=5.75

* * *

assay: in vitro; settings: human, uninfected (mock-infected) CEM-SS cells
Listed below: CC50 values for each entry.
result.type: CC50 (µM)

molecule=COC(=O)c1cc(C(=CC(=O)OC(C)(C)C)c2cc(Cl)c(OC)c(C(=O)OC)c2)cc(Cl)c1OC result_qualifier=> obs_value=100
molecule=COC(=O)c1cc(C(=CCCO)c2cc(Br)c(OC)c(C(=O)OC)c2)cc(Br)c1OC result_qualifier=> obs_value=316
molecule=COC(=O)C=C(c1cc(Cl)c(OC)c(C(=O)OC)c1)c1cc(Cl)c(OC)c(C(=O)OC)c1 result_qualifier== obs_value=25
molecule="CCCCCC1OC1(c1cc(Br)c(OC)c(C(=O)OC)c1)c1cc(Br)c(OC)c(C(=O)OC)c1 (stereo not shown)" result_qualifier=> obs_value=100
molecule=COC=C(c1cc(Br)c(OC)c(C(=O)OC)c1)c1cc(Br)c(OC)c(C(=O)OC)c1 result_qualifier== obs_value=22
molecule=CCCCCC=C(c1ccc(OC)c(C(=O)OC)c1)c1ccc(OC)c(C(=O)OC)c1 result_qualifier== obs_value=14
molecule=COC(=O)c1cc(C(=CCCOS(C)(=O)=O)c2cc(Cl)c(OC)c(C(=O)OC)c2)cc(Cl)c1OC result_qualifier== obs_value=6.9
molecule=COC(=O)c1cc(C(=CCCN=[N+]=[N-])c2cc(Cl)c(OC)c(C(=O)OC)c2)cc(Cl)c1OC result_qualifier== obs_value=41.8
molecule=COc1c(Cl)cc(C(=CCC(=O)O)c2cc(Cl)c(OC)c(C(=O)O)c2)cc1C(=O)O result_qualifier=> obs_value=316
molecule=CC=C(c1cc(Br)c(OC)c(C(=O)OC)c1)c1cc(Br)c(OC)c(C(=O)OC)c1 result_qualifier== obs_value=10
molecule=CCCCCC=C(c1cc(I)c(OC)c(C(=O)OC)c1)c1cc(I)c(OC)c(C(=O)OC)c1 result_qualifier=> obs_value=316
molecule=COC(=O)c1cc(C(=CCCN=[N+]=[N-])c2cc(Br)c(OC)c(C(=O)OC)c2)cc(Br)c1OC result_qualifier=> obs_value=316
molecule=C=C(c1cc(Br)c(OC)c(C(=O)OC)c1)c1cc(Br)c(OC)c(C(=O)OC)c1 result_qualifier== obs_value=316
molecule=COC(=O)c1cc(C(=CC(=O)O)c2cc(Cl)c(OC)c(C(=O)OC)c2)cc(Cl)c1OC result_qualifier== obs_value=48
molecule=CC1(C)OC(=O)c2cc(C(=CCCBr)c3cc(Cl)c4c(c3)C(=O)OC(C)(C)O4)cc(Cl)c2O1 result_qualifier== obs_value=176
molecule=CC1(C)OC(=O)c2cc(C(=CCCO)c3cc(Cl)c4c(c3)C(=O)OC(C)(C)O4)cc(Cl)c2O1 result_qualifier== obs_value=18.8
molecule=COC(=O)c1cc(C(=CCCO)c2cc(Cl)c(OC)c(C(=O)OC)c2)cc(Cl)c1OC result_qualifier== obs_value=16.8
molecule=COC(=O)c1cc(C(=CCCN)c2cc(Cl)c(OC)c(C(=O)OC)c2)cc(Cl)c1OC result_qualifier== obs_value=15
molecule=COC(=O)CCCC=C(c1cc(Cl)c(OC)c(C(=O)OC)c1)c1cc(Cl)c(OC)c(C(=O)OC)c1 result_qualifier== obs_value=31.6

Cited source: patent US6569897B1
